Quick reference for APOE RNA (% UTC) among some substances
# Test system: human APOE RNA
# Assay Summary: Dose-dependent inhibition of human APOE RNA in HepG2 cells, electroporation, 24 hours (Example 6)
# Type: cell-based
# Assay Context: 1,280 nM
Strand notation (5' to 3'): a small letter for the sugar, then the base; units joined by * are phosphorothioate-linked, units joined directly phosphodiester-linked; [ ] holds rarer units or linkages, { } end groups; capitals alone tell only the bases. [ms] = mesyl phosphoramidate linkage; e = 2'-O-(2-methoxyethyl) (MOE); k = constrained ethyl (cEt); [5mC] = 5-methylcytosine; d = 2'-deoxy (DNA)
Measurement Name: APOE RNA (% UTC)

# Substance, Readout Unit, Recorded Value
measured = [
    ("1736522: 6-10-4 MOE gapmer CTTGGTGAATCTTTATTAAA, linkages sooosszzssssssssoss (e[5mC]*eTeTeGeG*eT*dG[ms]dA[ms]dA*dT*d[5mC]*dT*dT*dT*dA*dT*eTeA*eA*eA) [compound 1736522]", "% UTC", 45),
    ("1736493 (e[5mC]*eTeT*eG*eG*eT*dG[ms]dA[ms]dA[ms]dT*d[5mC]*dT*dT*dT*dA[ms]dT*kT*kA*eA*eA; antisense) [Compound 1736493]", "% UTC", 25),
    ("1736533 (e[5mC]*eT*eT*eG*eGeT*dG[ms]dA[ms]dA[ms]dT*d[5mC]*dT*dT*dT*dA[ms]dT*kT*eA*eA*eA; antisense) [Compound 1736533]", "% UTC", 38),
]

====

# Tested on: human APOE RNA
# Assay Summary: Dose-dependent inhibition of human APOE RNA in HepG2 cells, electroporation, 50,000 cells per well, RT-PCR normalized to GAPDH (Example 4, Tables 8-10)
# Format: cell-based
# Assay Context: HepG2 cells, electroporation, 24-hour treatment, 1,280 nM, Table 8
Strand notation (5' to 3'): a small letter for the sugar, then the base; units joined by * are phosphorothioate-linked, units joined directly phosphodiester-linked; [ ] holds rarer units or linkages, { } end groups; capitals alone tell only the bases. [ms] = mesyl phosphoramidate linkage; e = 2'-O-(2-methoxyethyl) (MOE); k = constrained ethyl (cEt); [5mC] = 5-methylcytosine; d = 2'-deoxy (DNA)

# Substance, Subject Of Test, Readout Unit, APOE RNA (% UTC) 1,280 nM
data = [
    ("1778115: modified oligonucleotide complementary to human APOE RNA (eA*e[5mC]eTeTkGkG*dT*dG[ms]dA[ms]dA*dT*d[5mC]*dT*dT*dT*dA[ms]eTeT*eA*eA; antisense) [compound 1778115]", "human APOE RNA", "% UTC", 38),
    ("1785601: modified oligonucleotide complementary to human APOE RNA (k[5mC]*kT*kT*dG[ms]dG[ms]dT[ms]dG*dA[ms]dA[ms]dT*d[5mC]*dT*dT*dT*dA[ms]dT*kT*kA*dA[ms]kA; antisense) [compound 1785601]", "human APOE RNA", "% UTC", 25),
]

====

# Tested on: human APOE RNA
# Assay Summary: Dose-dependent inhibition of human APOE RNA in HepG2 cells, electroporation, 50,000 cells per well, RT-PCR normalized to GAPDH (Example 4, Tables 8-10)
# Type: cell-based
# Assay Context: 20,000 nM; HepG2, electroporation, 16-hour treatment
Strand notation (5' to 3'): a small letter for the sugar, then the base; units joined by * are phosphorothioate-linked, units joined directly phosphodiester-linked; [ ] holds rarer units or linkages, { } end groups; capitals alone tell only the bases. [ms] = mesyl phosphoramidate linkage; e = 2'-O-(2-methoxyethyl) (MOE); k = constrained ethyl (cEt); [5mC] = 5-methylcytosine; d = 2'-deoxy (DNA)

# Substance, Readout Unit, APOE RNA (% UTC)
data = [
    ("1757559: mixed MOE/cEt gapmer TTGGTGAATCTTTATTAA, sugar eeeekddddddddkeeee, linkages soossssssssssooss (eT*eTeGeG*kT*dG*dA*dA*dT*d[5mC]*dT*dT*dT*kAeTeT*eA*eA) [compound 1757559]", "% UTC", 25),
    ("1757582 (eT*eTeGkGkT*dG*dA*dA*dT*d[5mC]*dT*dT*dT*dA*dT*eTeAeA*eA*e[5mC]; antisense) [Compound 1757582]", "% UTC", 9),
    ("1757556: mixed MOE/cEt gapmer TTGGTGAATCTTTATTAA, sugar eeeeeddddddddekkee, linkages soossssssssssooss (eT*eTeGeG*eT*dG*dA*dA*dT*d[5mC]*dT*dT*dT*eAkTkT*eA*eA) [compound 1757556]", "% UTC", 13),
    ("1757571 (eA*e[5mC]eTeT*eG*kG*dT*dG[ms]dA[ms]dA[ms]dT*d[5mC]*dT*dT*dT*dA[ms]eT*eT*eA*eA; antisense) [Compound 1757571]", "% UTC", 11),
    ("1757569 (eA*e[5mC]eTkTkG*dG*dT*dG*dA*dA*dT*d[5mC]*dT*dT*dT*kAeTeT*eA*eA; antisense) [Compound 1757569]", "% UTC", 18),
    ("1757563: mixed MOE/cEt gapmer TTGGTGAATCTTTATTAA, sugar eeeekddddddddkekee, linkages soossssssssssooss (eT*eTeGeG*kT*dG*dA*dA*dT*d[5mC]*dT*dT*dT*kAeTkT*eA*eA) [compound 1757563]", "% UTC", 8),
    ("1757561: mixed MOE/cEt gapmer TTGGTGAATCTTTATTAA, sugar eeekkddddddddkeeee, linkages soossssssssssooss (eT*eTeGkG*kT*dG*dA*dA*dT*d[5mC]*dT*dT*dT*kAeTeT*eA*eA) [compound 1757561]", "% UTC", 12),
    ("1757544: mixed MOE/cEt gapmer TTGGTGAATCTTTATTAA, sugar ekeeeddddddddeeeee, linkages soossssssssssooss (eT*kTeGeG*eT*dG*dA*dA*dT*d[5mC]*dT*dT*dT*eAeTeT*eA*eA) [compound 1757544]", "% UTC", 12),
    ("1757541: mixed MOE/cEt gapmer TTGGTGAATCTTTATTAA, sugar eeeekddddddddeeeee, linkages soossssssssssooss (eT*eTeGeG*kT*dG*dA*dA*dT*d[5mC]*dT*dT*dT*eAeTeT*eA*eA) [compound 1757541]", "% UTC", 8),
]

====

Here, each record is paired with measured APOE RNA (% UTC) data.
# System: human APOE RNA
# Assay Summary: Dose-dependent inhibition of human APOE RNA in HepG2 cells, electroporation, 24 hours (Example 6)
# Type: cell-based
# Assay Context: 13 nM
Strand notation (5' to 3'): a small letter for the sugar, then the base; units joined by * are phosphorothioate-linked, units joined directly phosphodiester-linked; [ ] holds rarer units or linkages, { } end groups; capitals alone tell only the bases. [ms] = mesyl phosphoramidate linkage; e = 2'-O-(2-methoxyethyl) (MOE); k = constrained ethyl (cEt); [5mC] = 5-methylcytosine; d = 2'-deoxy (DNA)

# Substance, APOE RNA (% UTC)
measured = [
    ("1736513 (e[5mC]*eTeT*eG*eG*kT*dG[ms]dA[ms]dA[ms]dT*d[5mC]*dT*dT*dT*dA[ms]dT*eT*eA*eA*eA; antisense) [Compound 1736513]", 110),
    ("1736492 (e[5mC]*eTeT*eG*eG*eT*dG[ms]dA[ms]dA[ms]dT*d[5mC]*dT*dT*dT*dA[ms]dT*kT*eA*eA*eA; antisense) [Compound 1736492]", 87),
    ("1736534 (e[5mC]*eT*eT*eG*eGeT*dG[ms]dA[ms]dA[ms]dT*d[5mC]*dT*dT*dT*dA[ms]dT*kT*kA*eA*eA; antisense) [Compound 1736534]", 110),
    ("1736522: 6-10-4 MOE gapmer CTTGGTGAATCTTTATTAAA, linkages sooosszzssssssssoss (e[5mC]*eTeTeGeG*eT*dG[ms]dA[ms]dA*dT*d[5mC]*dT*dT*dT*dA*dT*eTeA*eA*eA) [compound 1736522]", 88),
    ("1736514 (e[5mC]*eTeT*eG*kG*kT*dG[ms]dA[ms]dA[ms]dT*d[5mC]*dT*dT*dT*dA[ms]dT*eT*eA*eA*eA; antisense) [Compound 1736514]", 123),
    ("1736516 (e[5mC]*eTeTeG*eG*kT*dG[ms]dA[ms]dA[ms]dT*d[5mC]*dT*dT*dT*dA[ms]dT*eT*eA*eA*eA; antisense) [Compound 1736516]", 110),
    ("1736517 (e[5mC]*eTeTeG*kG*kT*dG[ms]dA[ms]dA[ms]dT*d[5mC]*dT*dT*dT*dA[ms]dT*eT*eA*eA*eA; antisense) [Compound 1736517]", 92),
    ("1736493 (e[5mC]*eTeT*eG*eG*eT*dG[ms]dA[ms]dA[ms]dT*d[5mC]*dT*dT*dT*dA[ms]dT*kT*kA*eA*eA; antisense) [Compound 1736493]", 85),
    ("1736527: 6-10-4 MOE gapmer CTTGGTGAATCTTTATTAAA, linkages sssooozzsssssssssss (e[5mC]*eT*eT*eGeGeTdG[ms]dA[ms]dA*dT*d[5mC]*dT*dT*dT*dA*dT*eT*eA*eA*eA) [compound 1736527]", 108),
    ("1736529 (e[5mC]*eT*eT*eG*eG*eTdG[ms]dA[ms]dA[ms]dT*d[5mC]*dT*dT*dT*dA[ms]dT*kT*kA*eA*eA; antisense) [Compound 1736529]", 102),
    ("1736524: 6-10-4 MOE gapmer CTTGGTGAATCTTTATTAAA, linkages sssooozzssssssssoss (e[5mC]*eT*eT*eGeGeTdG[ms]dA[ms]dA*dT*d[5mC]*dT*dT*dT*dA*dT*eTeA*eA*eA) [compound 1736524]", 101),
    ("1736532 (e[5mC]*eT*eT*eG*kG*kTdG[ms]dA[ms]dA[ms]dT*d[5mC]*dT*dT*dT*dA[ms]dT*eT*eA*eA*eA; antisense) [Compound 1736532]", 85),
    ("1736528 (e[5mC]*eT*eT*eG*eG*eTdG[ms]dA[ms]dA[ms]dT*d[5mC]*dT*dT*dT*dA[ms]dT*kT*eA*eA*eA; antisense) [Compound 1736528]", 112),
    ("1736523: 6-10-4 MOE gapmer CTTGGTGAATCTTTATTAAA, linkages ssoooszzssssssssoss (e[5mC]*eT*eTeGeGeT*dG[ms]dA[ms]dA*dT*d[5mC]*dT*dT*dT*dA*dT*eTeA*eA*eA) [compound 1736523]", 114),
    ("1736531 (e[5mC]*eT*eT*eG*eG*kTdG[ms]dA[ms]dA[ms]dT*d[5mC]*dT*dT*dT*dA[ms]dT*eT*eA*eA*eA; antisense) [Compound 1736531]", 91),
    ("1736526: 6-10-4 MOE gapmer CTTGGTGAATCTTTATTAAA, linkages ssoooszzsssssssssss (e[5mC]*eT*eTeGeGeT*dG[ms]dA[ms]dA*dT*d[5mC]*dT*dT*dT*dA*dT*eT*eA*eA*eA) [compound 1736526]", 114),
    ("1736525: 6-10-4 MOE gapmer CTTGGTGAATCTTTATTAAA, linkages sooosszzsssssssssss (e[5mC]*eTeTeGeG*eT*dG[ms]dA[ms]dA*dT*d[5mC]*dT*dT*dT*dA*dT*eT*eA*eA*eA) [compound 1736525]", 100),
    ("1736520: 6-10-4 MOE gapmer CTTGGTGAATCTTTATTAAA, linkages sossoszzzssssssssss (e[5mC]*eTeT*eG*eGeT*dG[ms]dA[ms]dA[ms]dT*d[5mC]*dT*dT*dT*dA*dT*eT*eA*eA*eA) [compound 1736520]", 87),
    ("1736518: 6-10-4 MOE gapmer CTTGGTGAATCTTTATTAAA, linkages soossszzzssssssssss (e[5mC]*eTeTeG*eG*eT*dG[ms]dA[ms]dA[ms]dT*d[5mC]*dT*dT*dT*dA*dT*eT*eA*eA*eA) [compound 1736518]", 97),
]
